# experiment-notes: inhibitors of GR-EGFP nuclear translocation, primary screen, dynein cargo transport inhibitor project, imaging, high-content, 3617.4 mouse cells (AID 1381)
# condition-parameters: measured here: cytoplasmic GR-EGFP intensity, at 20 µM, stronger effect = higher value, stimulated with dexamethasone, 1 µM
Hit rate of the full screen: of about 220,000 compounds, about 1,000 (0.45%) were called active. For the sample, actives were picked, then their nearest neighbours and some compounds at random.
Label MET when z-score is at or above -0.2; anything below gets NOT MET.

[
  {
    "compound": "COc1ccc(-c2cc(C(F)(F)F)nc(SCC(=O)Nc3ccc4c(c3)OCO4)n2)cc1OC",
    "category": "NOT MET"
  }
]

Decide: z-score of CC(=O)Nc1cccc([N+](=O)[O-])c1 >= -0.2? NOT MET

Tell me whether z-score is at least -0.2 here: Cc1ccc(CNC(=O)Cn2c(=O)c3sccc3n(Cc3cccc([N+](=O)[O-])c3)c2=O)cc1 MET

Test whether the compound O=C1/C(=C/c2ccc3c(c2)OCO3)CCC/C1=C\c1ccc2c(c1)OCO2 records z-score of -0.2 or higher. MET

Please indicate if the recorded z-score for CCOc1ccc(C(=O)NC2CCN(CC(=O)NCc3cccs3)CC2)cc1 meets or exceeds -0.2. MET

Reported z-score at or above -0.2? CC(=O)Nc1ccc(S(=O)(=O)NCC(=O)OCc2cc(=O)oc3ccc4ccccc4c23)cc1 MET

###

# experiment-notes: inhibitors of GR-EGFP nuclear translocation, primary screen, dynein cargo transport inhibitor project, imaging, high-content, 3617.4 mouse cells (AID 1381)
# condition-parameters: measured here: cell count per field, at 20 µM, stimulated with dexamethasone, 1 µM
The whole screen tested about 220,000 compounds, of which about 1,000 (0.45%) were called active. The entries come from a sample that favours actives as a whole.
assay-metric: z-score
Could you respond with only the numeric value?

# count of solved cases: 5
[
  {
    "smiles-text": "CC(C)(C)c1cc(NC(=O)NN2CCOCC2)nn1-c1c(Cl)cc(Cl)cc1Cl",
    "z-score": 0.973
  },
  {
    "smiles-text": "Cc1nc(-c2nnc(SCC(=O)Nc3cc(C(F)(F)F)cc(C(F)(F)F)c3)n2C)cs1",
    "z-score": -0.365
  },
  {
    "smiles-text": "Cc1ccnc(N2CCN(C(=O)CSc3nc4ccccc4nc3N3CCCCC3)CC2)c1",
    "z-score": 0.232
  },
  {
    "smiles-text": "CCOC(=O)c1cnc2[nH]c3ccccc3n2c1=O",
    "z-score": -0.246
  },
  {
    "smiles-text": "COc1ccc(/C=N/N=C2/C(=O)Nc3ccccc32)cc1O",
    "z-score": -1.02
  }
]

Looking up CC(=O)c1cc(C#N)c(SCC(=O)Nc2nccs2)nc1C , I see its z-score listed as -0.767

Query COC(=O)[C@@H]1CC[C@H](C)[C@@H](c2ccc(C)cc2)N1C(=O)c1ccc(/C=N/O[C@H](C)c2cn([C@@H]3COC[C@H]3O)nn2)cc1 yields z-score of 0.326

###

Measured z-score values are reported for all entries that follow.
# experiment-notes: inhibitors of GR-EGFP nuclear translocation, primary screen, dynein cargo transport inhibitor project, imaging, high-content, 3617.4 mouse cells (AID 1381)
# condition-parameters: at 20 µM, stronger effect = lower value, stimulated with dexamethasone, 1 µM
Screen size: about 220,000 compounds; about 1,000 (0.45%) were called active. The full list was thinned out, with actives kept by preference.
The answer should be a number; do not append a unit.

Some solved cases for reference:
[
  {
    "compound": "COc1ccccc1NS(=O)(=O)N(C)C",
    "recorded-result": -0.0864
  },
  {
    "compound": "O=C1C=CC(=O)N1c1ccc(N2CCCCC2)cc1",
    "recorded-result": -4.11
  }
]

Value of measured z-score for the entry CSc1nc2c(c(=O)[nH]1)C(c1cccc(Cl)c1Cl)CC(=O)N2 (centres undefined) : -0.956

Looking up Cc1cc(SCC(=O)c2ccccc2)nc(SCC(=O)c2ccccc2)n1 , I see its z-score listed as 3.42

# z-score (compound: COc1ccc(CCc2nnc(CCC(=O)NCc3cnn(-c4ccccc4C)c3)o2)cc1 ) is 1.76

Measured z-score of Cc1ccccc1C(=O)Nc1ccc(N2CCCCCC2)cc1 : -0.0609

Lab note: COc1ccc(CCNC(=O)c2ccc(CS(=O)(=O)c3ccc(Br)cc3)o2)cc1OC gave z-score of 0.736

The compound identified as Fc1ccccc1/C=C1\CCCC2=C1Nc1ncnn1C2c1ccccc1F (centres undefined) registered its z-score at -4.08

# compound O=c1[nH][nH]c(=O)c2cc(N3CCCC3)ccc12 ; its z-score = -0.37

###

# experiment-notes: inhibitors of GR-EGFP nuclear translocation, primary screen, dynein cargo transport inhibitor project, imaging, high-content, 3617.4 mouse cells (AID 1381)
# condition-parameters: at 20 µM, stronger effect = lower value, stimulated with dexamethasone, 1 µM
Hit rate of the full screen: of about 220,000 compounds, about 1,000 (0.45%) were called active. The sample holds actives, similar compounds and a random draw of the others, so the mix is not that of the screen.
Item-by-item account of z-score
Lab note: jot the number down without any unit.

Past entries and their recorded results:
[
  {
    "compound": "Cc1ccc(Cn2c(NC(=O)c3ccco3)nc3ccccc32)cc1",
    "z-score": 0.337
  },
  {
    "compound": "COc1ccc(NC(=O)CN(Cc2ccccc2)S(C)(=O)=O)cc1OC",
    "z-score": 0.347
  },
  {
    "compound": "O=C(CSc1ccccc1F)NC1CCS(=O)(=O)C1 (stereo unspecified)",
    "z-score": -0.432
  }
]

Record Cc1[nH]c2ccccc2c1C(=O)COC(=O)c1c(-c2ccccc2)noc1C , field z-score: -0.58

Summary for this compound, COc1ccc(-n2cnc3cc(C(=O)NC4CCCC4)ccc32)cc1 : z-score is 0.728

// CCn1c(SCc2cc(=O)n3ccsc3n2)nc2ccccc21 : z-score value = -0.0624

Item: COc1ccc(C(=O)NCC(=O)N/N=C/c2ccc([N+](=O)[O-])o2)cc1OC | z-score: -4.33

Sure, the documented z-score for C=CS(=O)c1sc(Cl)c(N2CCOCC2)c1[N+](=O)[O-] (stereo unspecified) is -5.81

###

# experiment-notes: inhibitors of GR-EGFP nuclear translocation, primary screen, dynein cargo transport inhibitor project, imaging, high-content, 3617.4 mouse cells (AID 1381)
# condition-parameters: measured here: nuclear GR-EGFP intensity, at 20 µM, stronger effect = lower value, stimulated with dexamethasone, 1 µM
Screen size: about 220,000 compounds; about 1,000 (0.45%) were called active. Only a selection was taken, and actives are over-represented in it overall.
Sorting guide: entries reporting z-score beneath -0.9 go in the met pile, the rest go in the not met pile.

As a guide, the following entries are already answered.
[
  {
    "compound": "CCC1=C/C(=C\\c2ccc3c(c2)OCO3)C(=O)S1",
    "category": "met"
  },
  {
    "compound": "COc1ccc(Cl)cc1-n1c(C)cc(C(=O)OCC(=O)N2CC(=O)Nc3ccccc32)c1C",
    "category": "not met"
  },
  {
    "compound": "C/C(N)=C(/C#N)C(=O)COC(=O)c1cc(-c2cccc(Br)c2)nc2ccccc12",
    "category": "not met"
  }
]

In the record for O=C(COC(=O)c1ccccc1)Nc1cccc(S(=O)(=O)N2CCOCC2)c1 , is z-score less than -0.9? not met

Find out if reported z-score for C=CS(=O)c1sc(Cl)c(N2CCOCC2)c1[N+](=O)[O-] (stereo not drawn) is less than -0.9 met

Strictly below -0.9 in z-score? O=S1(=O)CCC(NC(=S)SCc2ccccc2Br)C1 (stereo not drawn) met

###

# experiment-notes: inhibitors of GR-EGFP nuclear translocation, primary screen, dynein cargo transport inhibitor project, imaging, high-content, 3617.4 mouse cells (AID 1381)
# condition-parameters: measured here: nuclear GR-EGFP intensity, at 20 µM, stronger effect = lower value, stimulated with dexamethasone, 1 µM
The whole screen tested about 220,000 compounds, of which about 1,000 (0.45%) were called active. The full list was thinned out, with actives kept by preference.
assay-metric: z-score
Reply with just the number.

Example entries begin here.
[
  {
    "compound": "COc1cccc(C(=O)Oc2cc(C)[nH]c(=O)c2[N+](=O)[O-])c1",
    "z-score": 0.869
  },
  {
    "compound": "COC(=O)C(C(=O)Nc1cccc(Cl)c1C)C1CCCC1 (stereo not drawn)",
    "z-score": -0.208
  },
  {
    "compound": "C/C(=N\\NC(=O)CSc1nc2ccccc2c(=O)n1-c1ccccc1C)c1cccs1",
    "z-score": 0.554
  },
  {
    "compound": "CC1CCN(C(=O)c2ccc(CSc3ccc(Cl)cc3)cc2)CC1",
    "z-score": -0.29
  },
  {
    "compound": "COCCn1c(C)cc(C(=O)COC(=O)/C=C/c2cccc(OC)c2)c1C",
    "z-score": -0.136
  }
]

z-score reading for CCOc1ccc(C(C)=O)cc1CSc1nnc(-c2ccncc2)n1CCOC : 0.523

Data point: Fc1ccccc1/C=C1\CCCC2=C1Nc1ncnn1C2c1ccccc1F (stereo not drawn) ; z-score = -1.5

Note to self: z-score recorded for CCN(CC)c1ccc2c(Nc3ccccc3)c(C=O)c(=O)oc2c1 was 1.54

Reference source: PubChem BioAssay AID1381
